The values you see were collected from the supplement of paper PMC5499739.

Test system: RBM10 RRM1-ZnF (GST-tagged construct);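 further: 20 pmol protein with 1.5 nmol RNA pool for 30 min at 4°C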
Protocol Text: RNAcompete 7-mer binding Z-score; higher = stronger binding preference
The full ranking holds about 16,000 sequences; the median of “Z-score” is about -0.37, and the highest 2% start at about 3.2. The list comes from a sample in which the highest values are over-represented; it also holds close analogues and randomly drawn sequences.
Using RNAcompete 7-mer binding Z-score as the sorting value, the categories are LOW: < 2; MID: ≥ 2 and < 3; HIGH: ≥ 3

>  <Monomer Sequence>
AGGUAGG

>  <System Name>
RBM10 RRM1-ZnF (GST-tagged construct);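 further: 20 pmol protein with 1.5 nmol RNA pool for 30 min at 4°C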

>  <Discrete Label>
HIGH

$$$$
>  <Monomer Sequence>
AGGUAUG

>  <System Name>
RBM10 RRM1-ZnF (GST-tagged construct);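 further: 20 pmol protein with 1.5 nmol RNA pool for 30 min at 4°C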

>  <Discrete Label>
MID

$$$$
>  <Monomer Sequence>
AAGGAAG

>  <System Name>
RBM10 RRM1-ZnF (GST-tagged construct);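 further: 20 pmol protein with 1.5 nmol RNA pool for 30 min at 4°C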

>  <Discrete Label>
HIGH

$$$$
>  <Monomer Sequence>
UGCGGGG

>  <System Name>
RBM10 RRM1-ZnF (GST-tagged construct);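 further: 20 pmol protein with 1.5 nmol RNA pool for 30 min at 4°C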

>  <Discrete Label>
HIGH

$$$$
>  <Monomer Sequence>
CAGGAAA

>  <System Name>
RBM10 RRM1-ZnF (GST-tagged construct);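 further: 20 pmol protein with 1.5 nmol RNA pool for 30 min at 4°C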

>  <Discrete Label>
LOW

$$$$
>  <Monomer Sequence>
GAGGAAA

>  <System Name>
RBM10 RRM1-ZnF (GST-tagged construct);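 further: 20 pmol protein with 1.5 nmol RNA pool for 30 min at 4°C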

>  <Discrete Label>
MID

$$$$
>  <Monomer Sequence>
AAAAGGG

>  <System Name>
RBM10 RRM1-ZnF (GST-tagged construct);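 further: 20 pmol protein with 1.5 nmol RNA pool for 30 min at 4°C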

>  <Discrete Label>
HIGH

$$$$
>  <Monomer Sequence>
AACGACU

>  <System Name>
RBM10 RRM1-ZnF (GST-tagged construct);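 further: 20 pmol protein with 1.5 nmol RNA pool for 30 min at 4°C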

>  <Discrete Label>
LOW

$$$$
>  <Monomer Sequence>
GGUAGCC

>  <System Name>
RBM10 RRM1-ZnF (GST-tagged construct);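 further: 20 pmol protein with 1.5 nmol RNA pool for 30 min at 4°C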

>  <Discrete Label>
LOW

$$$$
>  <Monomer Sequence>
GGGUAGG

>  <System Name>
RBM10 RRM1-ZnF (GST-tagged construct);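 further: 20 pmol protein with 1.5 nmol RNA pool for 30 min at 4°C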

>  <Discrete Label>
HIGH

$$$$
>  <Monomer Sequence>
UCAGCGG

>  <System Name>
RBM10 RRM1-ZnF (GST-tagged construct);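 further: 20 pmol protein with 1.5 nmol RNA pool for 30 min at 4°C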

>  <Discrete Label>
LOW

$$$$

----------
Test system: RBM10 RRM1-ZnF (GST-tagged construct);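 further: 20 pmol protein with 1.5 nmol RNA pool for 30 min at 4°C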
Protocol Text: RNAcompete 7-mer binding Z-score; higher = stronger binding preference
The full ranking holds about 16,000 sequences; the median of “Z-score” is about -0.37, and the highest 2% start at about 3.2. What follows is part of a selection rich in the highest values, with near analogues and random picks from the rest.
Values of RNAcompete 7-mer binding Z-score greater than or equal to -0.02 map to class 1; values below map to class 0.

>  <Monomer Sequence>
CCGCUCC

>  <Discrete Label>
class 0

$$$$
>  <Monomer Sequence>
GGGGUCA

>  <Discrete Label>
class 1

$$$$
>  <Monomer Sequence>
AGAAUGG

>  <Discrete Label>
class 1

$$$$
>  <Monomer Sequence>
GUGCUAA

>  <Discrete Label>
class 1

$$$$
>  <Monomer Sequence>
UAGGGCU

>  <Discrete Label>
class 1

$$$$
>  <Monomer Sequence>
CAAGGAG

>  <Discrete Label>
class 1

$$$$
>  <Monomer Sequence>
CCUGCGG

>  <Discrete Label>
class 1

$$$$
>  <Monomer Sequence>
GUACUGA

>  <Discrete Label>
class 1

$$$$
>  <Monomer Sequence>
GUCCAGA

>  <Discrete Label>
class 0

$$$$
>  <Monomer Sequence>
UAUGUGA

>  <Discrete Label>
class 1

$$$$
>  <Monomer Sequence>
AGAUAUC

>  <Discrete Label>
class 0

$$$$
>  <Monomer Sequence>
AGCAUUC

>  <Discrete Label>
class 0

$$$$
>  <Monomer Sequence>
UAGGUUG

>  <Discrete Label>
class 1

$$$$
>  <Monomer Sequence>
CCGUGCC

>  <Discrete Label>
class 0

$$$$
>  <Monomer Sequence>
UAAGGAA

>  <Discrete Label>
class 1

$$$$
>  <Monomer Sequence>
GCCGCGA

>  <Discrete Label>
class 0

$$$$
>  <Monomer Sequence>
GUUUCGA

>  <Discrete Label>
class 0

$$$$
>  <Monomer Sequence>
GGAAUGG

>  <Discrete Label>
class 1

$$$$
>  <Monomer Sequence>
GGGGAAG

>  <Discrete Label>
class 1

$$$$
>  <Monomer Sequence>
ACUUGCU

>  <Discrete Label>
class 0

$$$$
>  <Monomer Sequence>
CUCAGGU

>  <Discrete Label>
class 0

$$$$
>  <Monomer Sequence>
GUACCAG

>  <Discrete Label>
class 0

$$$$
>  <Monomer Sequence>
CAGGGGG

>  <Discrete Label>
class 1

$$$$
>  <Monomer Sequence>
ACAGCGA

>  <Discrete Label>
class 0

$$$$
>  <Monomer Sequence>
CACAAAA

>  <Discrete Label>
class 0

$$$$
>  <Monomer Sequence>
GUAGUCA

>  <Discrete Label>
class 1

$$$$
>  <Monomer Sequence>
AUUUUCG

>  <Discrete Label>
class 0

$$$$
>  <Monomer Sequence>
UGAAUAG

>  <Discrete Label>
class 1

$$$$
>  <Monomer Sequence>
CGCUUAU

>  <Discrete Label>
class 0

$$$$
>  <Monomer Sequence>
GUGUUAA

>  <Discrete Label>
class 0

$$$$
>  <Monomer Sequence>
GAUACGU

>  <Discrete Label>
class 0

$$$$
>  <Monomer Sequence>
CAGCAAG

>  <Discrete Label>
class 0

$$$$
>  <Monomer Sequence>
GGUGAGA

>  <Discrete Label>
class 1

$$$$
>  <Monomer Sequence>
CGUGAGG

>  <Discrete Label>
class 1

$$$$
>  <Monomer Sequence>
AAUUCAG

>  <Discrete Label>
class 0

$$$$
>  <Monomer Sequence>
GGGUUAC

>  <Discrete Label>
class 1

$$$$
>  <Monomer Sequence>
GGAGGAA

>  <Discrete Label>
class 1

$$$$
>  <Monomer Sequence>
UAGGGGU

>  <Discrete Label>
class 1

$$$$
>  <Monomer Sequence>
GCGGGUG

>  <Discrete Label>
class 1

$$$$
>  <Monomer Sequence>
GCGUUUA

>  <Discrete Label>
class 0

$$$$
>  <Monomer Sequence>
UAGGGAC

>  <Discrete Label>
class 1

$$$$
>  <Monomer Sequence>
GCUUCCC

>  <Discrete Label>
class 0

$$$$
>  <Monomer Sequence>
UACCAAC

>  <Discrete Label>
class 0

$$$$
